# tested.target: Tyrosinase (Agaricus bisporus)
# assay.remarks: Binding affinity to mushroom tyrosinase assessed as binding constant by fluorescence spectrophotometry
parameter.measured: KA (×10⁶ L/mol)

Completed entries (count: 2):
smiles.string	measured.result
COc1cc([C@@H]2[C@H]3CO[C@@]4(O)C(=O)[C@@H]2C=C([C@H]2Oc5cc(O)cc(O)c5C(=O)[C@@H]2O)[C@@H]34)ccc1O	5.81
COc1cc([C@@H]2Oc3c(O)cc(-c4oc5cc(O)cc(O)c5c(=O)c4O)cc3[C@H]2CO)ccc1O	2.25

a: COc1cc([C@@H]2Oc3ccc([C@H]4Oc5cc(O)cc(O)c5C(=O)[C@@H]4O)cc3O[C@H]2CO)ccc1O
b: O=C1c2c(O)cc(O)cc2O[C@H](c2ccc(O)c(O)c2)[C@H]1O
Look at a and b . Which one has the lower recorded KA number? // return label of chosen record
b
(b: 0.918 ×10⁶ L/mol, a: 2.42 ×10⁶ L/mol)

* * *

# tested.target: Tyrosinase (Agaricus bisporus)
# assay.remarks: Inhibition of diphenolase activity of mushroom tyrosinase assessed as reduction in dopachrome formation using L-DOPA substrate by UV-Vis spectrophotometry
pIC50: −log10 of the molar value.
parameter.measured: pIC50

Completed entries (count: 6):
molecule	measured.result
COc1cc([C@@H]2Oc3c(O)cc(-c4oc5cc(O)cc(O)c5c(=O)c4O)cc3[C@H]2CO)ccc1O	4.44
COc1cc([C@@H]2Oc3ccc([C@H]4Oc5cc(O)cc(O)c5C(=O)[C@@H]4O)cc3O[C@H]2CO)ccc1O	4.70
COc1cc([C@@H]2[C@H]3CO[C@@]4(O)C(=O)[C@@H]2C=C([C@H]2Oc5cc(O)cc(O)c5C(=O)[C@@H]2O)[C@@H]34)ccc1O	4.78
COc1cc([C@@H]2Oc3c(O)cc([C@H]4Oc5cc(O)cc(O)c5C(=O)[C@@H]4O)cc3[C@H]2CO)ccc1O	4.54
COc1cc(C2Oc3cc([C@H]4Oc5cc(O)cc(O)c5C(=O)[C@@H]4O)ccc3OC2CO)ccc1O (mixture of isomers)	4.92
COc1cc([C@H]2Oc3ccc([C@H]4Oc5cc(O)cc(O)c5C(=O)[C@@H]4O)cc3O[C@@H]2CO)ccc1O	4.78

A: COc1cc([C@H]2Oc3cc(O)cc(O)c3C(=O)[C@@H]2O)ccc1O
B: COc1cc([C@H]2Oc3c(O)cc([C@H]4Oc5cc(O)cc(O)c5C(=O)[C@@H]4O)cc3[C@@H]2CO)ccc1O
Of the two listed items, A and B , which carries the larger pIC50 figure? // return label of chosen record
B

* * *

# tested.target: Tyrosinase (Agaricus bisporus)
# Sequence (O42713 whole entry): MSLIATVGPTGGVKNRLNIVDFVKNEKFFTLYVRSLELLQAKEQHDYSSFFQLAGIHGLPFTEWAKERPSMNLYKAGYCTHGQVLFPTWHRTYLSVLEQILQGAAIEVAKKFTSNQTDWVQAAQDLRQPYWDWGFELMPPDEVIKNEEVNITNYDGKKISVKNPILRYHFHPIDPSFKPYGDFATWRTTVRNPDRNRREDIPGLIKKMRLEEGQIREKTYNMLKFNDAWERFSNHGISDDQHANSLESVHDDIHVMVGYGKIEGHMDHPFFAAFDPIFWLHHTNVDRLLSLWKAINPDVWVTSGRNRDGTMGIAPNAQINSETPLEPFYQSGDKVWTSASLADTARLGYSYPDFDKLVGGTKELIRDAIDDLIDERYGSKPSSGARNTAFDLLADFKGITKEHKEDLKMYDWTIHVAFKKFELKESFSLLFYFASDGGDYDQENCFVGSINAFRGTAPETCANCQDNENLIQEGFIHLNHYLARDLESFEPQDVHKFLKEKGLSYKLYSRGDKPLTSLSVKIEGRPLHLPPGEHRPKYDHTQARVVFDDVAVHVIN
pKi: −log10 of the molar value.
parameter.measured: pKi

compound	pKi
COc1cc([C@@H]2Oc3c(O)cc(-c4oc5cc(O)cc(O)c5c(=O)c4O)cc3[C@H]2CO)ccc1O	5.33
COc1cc([C@H]2Oc3ccc([C@H]4Oc5cc(O)cc(O)c5C(=O)[C@@H]4O)cc3O[C@@H]2CO)ccc1O	5.96
COc1cc([C@H]2Oc3c(O)cc([C@H]4Oc5cc(O)cc(O)c5C(=O)[C@@H]4O)cc3[C@@H]2CO)ccc1O	5.55
COc1cc([C@@H]2[C@H]3CO[C@@]4(O)C(=O)[C@@H]2C=C([C@H]2Oc5cc(O)cc(O)c5C(=O)[C@@H]2O)[C@@H]34)ccc1O	5.77

a: COc1cc([C@@H]2Oc3c(O)cc([C@H]4Oc5cc(O)cc(O)c5C(=O)[C@@H]4O)cc3[C@H]2CO)ccc1O
b: COc1cc([C@@H]2Oc3ccc([C@H]4Oc5cc(O)cc(O)c5C(=O)[C@@H]4O)cc3O[C@H]2CO)ccc1O
c: COc1cc(C2Oc3cc([C@H]4Oc5cc(O)cc(O)c5C(=O)[C@@H]4O)ccc3OC2CO)ccc1O (mixture of isomers)
List by increasing pKi. Response format: the labels, sorted as the prompt asks.
b, a, c

* * *

# tested.target: Tyrosinase (Agaricus bisporus)
# assay.remarks: Inhibition of monophenolase activity of mushroom tyrosinase assessed as reduction in dopachrome formation using L-Tyrosine substrate by UV-Vis spectrophotometry
parameter.measured: IC50 (µM)

Completed entries (count: 4):
compound	result.unit	IC50
COc1cc([C@H]2Oc3cc(O)cc(O)c3C(=O)[C@@H]2O)ccc1O	µM	51.2
COc1cc([C@H]2Oc3ccc([C@H]4Oc5cc(O)cc(O)c5C(=O)[C@@H]4O)cc3O[C@@H]2CO)ccc1O	µM	2.1
COc1cc([C@@H]2Oc3ccc([C@H]4Oc5cc(O)cc(O)c5C(=O)[C@@H]4O)cc3O[C@H]2CO)ccc1O	µM	4.9
O=C1c2c(O)cc(O)cc2O[C@H](c2ccc(O)cc2)[C@H]1O [DIHYDROKAEMPFEROL]	µM	73.6

P: COc1cc([C@H]2Oc3c(O)cc([C@H]4Oc5cc(O)cc(O)c5C(=O)[C@@H]4O)cc3[C@@H]2CO)ccc1O
Q: COc1cc(C2Oc3cc([C@H]4Oc5cc(O)cc(O)c5C(=O)[C@@H]4O)ccc3OC2CO)ccc1O (mixture of isomers)
Of the two listed items, P and Q , which carries the larger IC50 figure? // return label of chosen record
P

* * *

# tested.target: UniProt:O42713
# Sequence (whole entry): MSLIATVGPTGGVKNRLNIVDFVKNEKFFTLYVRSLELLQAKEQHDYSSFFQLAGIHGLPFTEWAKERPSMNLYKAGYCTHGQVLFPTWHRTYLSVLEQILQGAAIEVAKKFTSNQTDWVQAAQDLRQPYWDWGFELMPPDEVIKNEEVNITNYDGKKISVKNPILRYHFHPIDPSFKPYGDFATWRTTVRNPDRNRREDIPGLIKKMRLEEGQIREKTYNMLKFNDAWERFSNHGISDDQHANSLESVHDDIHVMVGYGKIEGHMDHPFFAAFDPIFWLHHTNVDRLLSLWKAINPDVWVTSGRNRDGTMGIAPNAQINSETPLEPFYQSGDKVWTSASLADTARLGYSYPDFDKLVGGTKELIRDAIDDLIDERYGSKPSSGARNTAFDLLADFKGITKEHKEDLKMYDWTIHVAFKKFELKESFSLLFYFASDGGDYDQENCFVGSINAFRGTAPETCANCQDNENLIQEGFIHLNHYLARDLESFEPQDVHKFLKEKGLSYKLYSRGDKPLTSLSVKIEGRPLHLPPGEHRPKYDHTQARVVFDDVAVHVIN
# assay.remarks: Binding affinity to mushroom tyrosinase assessed as binding constant by fluorescence spectrophotometry
parameter.measured: KA (×10⁶ L/mol)

compound	tested.target	KA / ×10⁶ L/mol
COc1cc([C@H]2Oc3c(O)cc([C@H]4Oc5cc(O)cc(O)c5C(=O)[C@@H]4O)cc3[C@@H]2CO)ccc1O	UniProt:O42713	2.88

a: COc1cc(C2Oc3cc([C@H]4Oc5cc(O)cc(O)c5C(=O)[C@@H]4O)ccc3OC2CO)ccc1O (mixture of isomers)
b: COc1cc([C@@H]2Oc3c(O)cc([C@H]4Oc5cc(O)cc(O)c5C(=O)[C@@H]4O)cc3[C@H]2CO)ccc1O
c: O=C1c2c(O)cc(O)cc2O[C@H](c2ccc(O)cc2)[C@H]1O [DIHYDROKAEMPFEROL]
d: COc1cc([C@H]2Oc3cc(O)cc(O)c3C(=O)[C@@H]2O)ccc1O
Hey, quick one: sort these by KA, largest value first please. Response format: the labels, sorted as the prompt asks.
a, b, d, c
(a: 6.16 ×10⁶ L/mol, b: 3.55 ×10⁶ L/mol, d: 0.849 ×10⁶ L/mol, c: 0.094 ×10⁶ L/mol)

* * *

pKi: −log10 of the molar value.
In what follows, each item is paired with its pKi for Tyrosinase (Agaricus bisporus).
parameter.measured: pKi

compound	tested.target	pKi
COc1cc([C@H]2Oc3ccc([C@H]4Oc5cc(O)cc(O)c5C(=O)[C@@H]4O)cc3O[C@@H]2CO)ccc1O	Tyrosinase (Agaricus bisporus)	5.96

A: COc1cc(C2Oc3cc([C@H]4Oc5cc(O)cc(O)c5C(=O)[C@@H]4O)ccc3OC2CO)ccc1O (mixture of isomers)
B: COc1cc([C@@H]2Oc3c(O)cc([C@H]4Oc5cc(O)cc(O)c5C(=O)[C@@H]4O)cc3[C@H]2CO)ccc1O
Look at A and B . Which one has the lower recorded pKi number? // return label of chosen record
B
(B: 5.68, A: 6.15)
